Test system: A498
Assay: Cytotoxicity against human A498 cells assessed as growth inhibition at 10 uM after 48 hrs by SRB assay
Type: functional
Details: A498, 48 h, read-out: GI
# inhibition of growth at 10 µM values compiled below
Value expressed in %; do not type the unit.

mol	assay target	quantity kind	reported
COc1cc2nc(SCCC(=O)Nc3cc(OC)c(OC)c(OC)c3)n(-c3ccc(F)cc3)c(=O)c2cc1OC	A498	inhibition of growth at 10 µM	22
COc1cc2nc(SCC(=O)Nc3cc(OC)c(OC)c(OC)c3)n(-c3ccccc3)c(=O)c2cc1OC	A498	inhibition of growth at 10 µM	28

Next:
Task: I have this compound here, COc1cc(NC(=O)CSc2nc3ccc(Cl)cc3c(=O)n2-c2ccc(F)cc2)cc(OC)c1OC , and I need its recorded inhibition of growth at 10 µM.
Output: 66

---

Tested on: NCI-H522
Assay: Cytotoxicity against human NCI-H522 cells assessed as growth inhibition at 10 uM after 48 hrs by SRB assay
Type: functional
Settings: NCI-H522, 48 h, read-out: GI
The label depends only on inhibition of growth at 10 µM: Yes if it is at least 50%, No if it is smaller.

Take a look at these entries with their results.
mol	class assignment
COc1cc2nc(SCCC(=O)Nc3cc(OC)c(OC)c(OC)c3)n(-c3ccccc3)c(=O)c2cc1OC	No
COc1cc(NC(=O)CCSc2nc3ccccc3c(=O)n2-c2ccc(F)cc2)cc(OC)c1OC	Yes
COc1cc2nc(SCC(=O)Nc3cc(OC)c(OC)c(OC)c3)n(-c3ccccc3)c(=O)c2cc1OC	Yes
COc1cc2nc(SCC(=O)Nc3cc(OC)c(OC)c(OC)c3)n(-c3ccc(F)cc3)c(=O)c2cc1OC	No

# ---- query molecule ----
Task: Please indicate if the recorded inhibition of growth at 10 µM for COc1cc(NC(=O)CSc2nc3ccccc3c(=O)n2-c2ccccc2)cc(OC)c1OC meets or exceeds 50%.
Output: No
